Documented % Growth across a set of compounds
Tested on: SW620
Experiment: NCI screen, growth of human tumor cells: Colon Cancer SW620
Type: cell-based
Settings: SW620, 10^−4 molar
Could you give me the number in %? Just the number is fine.

Examples with their reported % Growth follow.
- compound: "O=S1(=O)OCCOS(=O)(=O)C1(I)I [NSC 648308, ethylene diiodomethanedisulfonate]"
  system-name: "SW620"
  uom: "%"
  % Growth: "−55"
- compound: "C[Si](C)(OCCS(=O)(=O)O)C1S(=O)(=O)OCCOS1(=O)=O [NSC 674991]"
  system-name: "SW620"
  uom: "%"
  % Growth: "−49"
- compound: "CC(=O)C1(CC2=C(C)C(=O)c3ccccc3C2=O)S(=O)(=O)OCCOS1(=O)=O [NSC 701690]"
  system-name: "SW620"
  uom: "%"
  % Growth: "−100"

Q: Specify % Growth for CC1(C)OCC(COC(=O)C(=O)C2(Cc3ccc4c(c3)C(=O)c3ccccc3C4=O)S(=O)(=O)OCCOS2(=O)=O)O1 (stereo not shown) [NSC 737276] and stop.
Ans: −74

Each recorded value in this set is attributed to patent US8124793B2.
